target: Aurora kinase B (Homo sapiens)
Sequence (Q96GD4 whole entry): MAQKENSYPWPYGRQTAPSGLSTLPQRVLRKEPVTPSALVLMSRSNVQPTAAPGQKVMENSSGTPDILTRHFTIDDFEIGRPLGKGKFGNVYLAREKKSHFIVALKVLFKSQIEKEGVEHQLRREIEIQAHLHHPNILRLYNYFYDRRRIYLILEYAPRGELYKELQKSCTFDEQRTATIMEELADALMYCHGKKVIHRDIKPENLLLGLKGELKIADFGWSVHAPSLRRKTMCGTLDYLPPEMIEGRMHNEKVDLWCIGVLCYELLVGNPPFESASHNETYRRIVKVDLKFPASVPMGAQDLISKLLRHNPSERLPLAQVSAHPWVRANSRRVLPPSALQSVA
experimental-endpoint: pIC50
Would you please state pIC50, meaning minus log10 of the concentration in mol/L, as a bare number?

Entry "Cc1[nH]nc2c1CCCc1c-2[nH]c2ccccc12" , Aurora kinase B (Homo sapiens) data, pIC50 value: 7.66
